// Dmax lookup, one value per entry
measured target: BCL-XL (Homo sapiens)
Construct: BCL-XL degradation results in MOLT-4 cells for compounds of the invention; endogenous in cells; host or cells: MOLT-4
Sequence (Q07817 whole entry): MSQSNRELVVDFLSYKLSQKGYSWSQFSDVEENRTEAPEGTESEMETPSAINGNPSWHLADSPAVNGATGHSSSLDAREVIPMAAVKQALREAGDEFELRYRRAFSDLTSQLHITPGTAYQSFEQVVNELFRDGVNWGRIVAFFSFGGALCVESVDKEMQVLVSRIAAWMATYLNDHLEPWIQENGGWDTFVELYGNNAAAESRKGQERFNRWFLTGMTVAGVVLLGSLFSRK
experiment notes: BCL-XL degradation assay in MOLT-4 cells (ELISA, 6 h)
Format: cell-based

| compound | Dmax |
| --- | --- |
| Cc1ncsc1-c1ccc([C@H](C)NC(=O)[C@@H]2C[C@@H](O)CN2C(=O)[C@@H](NC(=O)CCCCCC(=O)N2CCN(CCCNc3ccc(S(=O)(=O)NC(=O)c4ccc(N5CCN(CC6=C(c7ccc(Cl)cc7)CCC(C)(C)C6)CC5)cc4Oc4cnc5[nH]ccc5c4)cc3S(=O)(=O)C(F)(F)F)CC2)C(C)(C)C)cc1 [I-52] | 50 to 75% |

Proceeding to the next compound to report its Dmax.
Request: Tell me the measured Dmax of Cc1ncsc1-c1ccc([C@H](C)NC(=O)[C@@H]2C[C@@H](O)CN2C(=O)[C@@H](NC(=O)CCCCCN2CCN(CCCNc3ccc(S(=O)(=O)NC(=O)c4ccc(N5CCN(CC6=C(c7ccc(Cl)cc7)CC(C)(C)CC6)CC5)cc4Oc4cnc5[nH]ccc5c4)cc3S(=O)(=O)C(F)(F)F)CC2)C(C)(C)C)cc1 [I-74] , please.
Result: < 50%
